Entry source: PubChem BioAssay AID2732

measurement-notes: blockers of ER-stress CHOP reporter expression – cell-based, unfolded protein response, luciferase reporter, primary screen (AID 2732);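 also: 0% = tunicamycin plus vehicle and 100% = wells without tunicamycin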
measurement-context: CHO-K1 CHOP-promoter luciferase, tunicamycin-induced, 15-18 h; at 10 µM; active compounds read high
The whole screen tested about 220,000 compounds, of which about 8,200 (3.7%) were called active. The sample as a whole holds a higher share of actives than the screen did.
result-type: inhibition (%)
Report as a plain number; the unit % is understood.

{"compound": "COc1ccc(-c2nn(-c3ccccc3)cc2/C=C\\C(=O)Nc2ccc(C(=O)O)cc2)cc1", "numeric-value": 40.4}

Challenge: Given Cc1cccc(NC(=O)c2ccc([N+](=O)[O-])o2)c1 , state its recorded inhibition.
Response given: -27

Challenge: Given COc1ccc(CCN2C(=O)CC(N3CCC(C(N)=O)CC3)C2=O)cc1OC (configuration not stated) , state its recorded inhibition.
Response given: -9.45

Challenge: Given Cc1ccc(-c2nn(-c3ccccc3)cc2/C=C/C(=O)Nc2cccc(S(N)(=O)=O)c2)cc1 , state its recorded inhibition.
Response given: 88.3

---

measurement-notes: blockers of ER-stress CHOP reporter expression – cell-based, unfolded protein response, luciferase reporter, primary screen (AID 2732);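 also: 0% = tunicamycin plus vehicle and 100% = wells without tunicamycin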
measurement-context: CHO-K1 CHOP-promoter luciferase, tunicamycin-induced, 15-18 h; at 10 µM; active compounds read high
In all, about 220,000 compounds went through this assay and about 8,200 (3.7%) were called active. This excerpt belongs to a sample that is enriched for actives.
Documented inhibition across a set of compounds
Report as a plain number; the unit % is understood.

Record excerpt, results attached:
{"compound": "Cc1cc(Nc2ccc(Cl)cc2)nc(N2CCOCC2)n1", "result-type": "inhibition", "numeric-value": 0.58}
{"compound": "CCCN(c1ccc(C)cc1)c1nc(=O)c2cccnc2s1", "result-type": "inhibition", "numeric-value": 12.3}
{"compound": "CC(C)Cc1nc(Nc2ccc(S(=O)(=O)N3CCCC3)cc2)c2nnn(Cc3ccccc3)c2n1", "result-type": "inhibition", "numeric-value": 27.2}
{"compound": "COC(=O)C1=C(N)Oc2cc(C)[nH]c(=O)c2C1c1ccc(Cl)cc1 (stereo not given)", "result-type": "inhibition", "numeric-value": -8.98}
{"compound": "CN(c1ccc(OCC(=O)NC2=NCCS2)cc1)S(=O)(=O)c1ccc(F)cc1", "result-type": "inhibition", "numeric-value": -3.41}
{"compound": "CC(C)=NN1C(=O)c2ccccc2NC1(C)C", "result-type": "inhibition", "numeric-value": 2.15}
{"compound": "COc1cc(/C=C(\\C#N)C(=O)Nc2ccc3ccccc3c2)c([N+](=O)[O-])cc1OC", "result-type": "inhibition", "numeric-value": -24.5}
{"compound": "Oc1c(Cl)cc(Cl)c(Cl)c1Cc1c(O)c(Cl)cc(Cl)c1Cl", "result-type": "inhibition", "numeric-value": 93.3}

Challenge: Given CS(=O)(=O)c1ccc2nnn(OCC(=O)Nc3cccc(C#N)c3)c2c1 , state its recorded inhibition.
Response given: 7.09

Challenge: Given Cc1ccc(C(=O)N/C(=C\c2ccco2)C(=O)NC2CCS(=O)(=O)C2)cc1 (stereo not given) , state its recorded inhibition.
Response given: 10.1

Challenge: Given COc1ccc(NC(=O)/C(C#N)=C\c2cc(OC)c(OCc3ccc(C(=O)O)cc3)cc2Br)cc1 , state its recorded inhibition.
Response given: 103

Challenge: Given O=C(NCc1ccccc1Cl)NC(=O)c1csc([N+](=O)[O-])c1 , state its recorded inhibition.
Response given: -5.11

Challenge: Given CCOc1ccc(/C=N/NC(=O)CSc2ccccn2)cc1O , state its recorded inhibition.
Response given: 3.02

Challenge: Given O=C(Nc1nc2ccc([N+](=O)[O-])cc2s1)c1ccc(S(=O)(=O)N2CCCc3ccccc32)cc1 , state its recorded inhibition.
Response given: 80.6

Challenge: Given Cc1cnc(C(=O)OCC(=O)NCCCc2ccccc2)cn1 , state its recorded inhibition.
Response given: 4.94

Challenge: Given Cn1nccc1NC(=O)Nc1ccc(OC(F)(F)F)cc1 , state its recorded inhibition.
Response given: 0.64

---

measurement-notes: blockers of ER-stress CHOP reporter expression – cell-based, unfolded protein response, luciferase reporter, primary screen (AID 2732);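 also: 0% = tunicamycin plus vehicle and 100% = wells without tunicamycin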
measurement-context: CHO-K1 CHOP-promoter luciferase, tunicamycin-induced, 15-18 h; at 10 µM
In all, about 220,000 compounds went through this assay and about 8,200 (3.7%) were called active.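 How the source made its calls: active means compounds that reduced the stress-induced luciferase reporter signal by more than about 70% of percent inhibition (limit read from the data); inactive means the rest.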 Shown is part of a subset that was picked to be rich in actives.
Returns: one label drawn from active, inactive

Check out these entries, answers already filled in.
{"molecule": "O=C(COc1ccccc1)NCCc1nc2ccccc2[nH]1", "group": "inactive"}
{"molecule": "COc1ccc(OC(C)C(=O)NCCc2nc3ccccc3[nH]2)cc1 (centres undefined)", "group": "inactive"}
{"molecule": "CCc1ccc2nc(Nc3ncc(C(C)=O)c(C)n3)nc(C)c2c1", "group": "inactive"}

Moving on to the next molecule.
Challenge: Hey, what did the test say about CCCCCOc1ccc(/C=C/C(=O)NCCc2nc3ccccc3[nH]2)cc1OC ?
Response given: active

---

measurement-notes: blockers of ER-stress CHOP reporter expression – cell-based, unfolded protein response, luciferase reporter, primary screen (AID 2732);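 also: 0% = tunicamycin plus vehicle and 100% = wells without tunicamycin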
measurement-context: CHO-K1 CHOP-promoter luciferase, tunicamycin-induced, 15-18 h; at 10 µM; active compounds read high
About 8,200 (3.7%) of roughly 220,000 compounds were called active. The list comes from a sample in which actives are over-represented; it also holds close analogues and randomly drawn compounds.
Documented inhibition across a set of compounds
Report as a plain number; the unit % is understood.

{"compound": "COc1ccccc1-n1c(SCC(=O)O)nc2sc3c(c2c1=O)CCC3", "result-type": "inhibition", "unit-text": "%", "numeric-value": 8.81}
{"compound": "Nc1ccccc1C(=O)NC1CCCCNC1=O (centres undefined)", "result-type": "inhibition", "unit-text": "%", "numeric-value": 13.6}
{"compound": "CCc1cc(CNC(=O)CC2C(=O)NCCN2Cc2ccccc2C(F)(F)F)on1 (centres undefined)", "result-type": "inhibition", "unit-text": "%", "numeric-value": 20.4}
{"compound": "CC(=O)Nc1ccc(/C=N/Nc2ccc(C(=O)c3c(C)cc4ccccn34)cc2[N+](=O)[O-])cc1", "result-type": "inhibition", "unit-text": "%", "numeric-value": 17.2}
{"compound": "CC(C)=CCC/C(C)=C/C(=O)O", "result-type": "inhibition", "unit-text": "%", "numeric-value": -11.9}

Challenge: Given FC(F)(F)c1ccc(-n2cn[nH]c2=S)cc1 , state its recorded inhibition.
Response given: 9.71

Challenge: Given C=CCOC(=O)C1=C(C)NC(C)=C(C(=O)OCC=C)C1c1cccs1 , state its recorded inhibition.
Response given: 86.8

Challenge: Given Clc1cccc(CN2COc3c(cc(Cl)c4cccnc34)C2)c1 , state its recorded inhibition.
Response given: 108

Challenge: Given Cc1ccc(NNC(=O)C2CCC2)cc1C , state its recorded inhibition.
Response given: 6.66

Challenge: Given COc1cccc(NC(=O)NCc2ccc(F)cc2)c1 , state its recorded inhibition.
Response given: 5.22

Challenge: Given O=c1[nH]n(-c2cccc(Cl)c2)c2ncccc12 , state its recorded inhibition.
Response given: 9.34

Challenge: Given CCOC(=O)C1=C(C)Nc2nc3ccccc3n2C1c1cccs1 (centres undefined) , state its recorded inhibition.
Response given: 18

Challenge: Given O=C(CCCN1C(=O)/C(=C/c2ccccc2)SC1=S)Nc1ccc(O)cc1 , state its recorded inhibition.
Response given: 58.8

---

measurement-notes: blockers of ER-stress CHOP reporter expression – cell-based, unfolded protein response, luciferase reporter, primary screen (AID 2732);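 also: 0% = tunicamycin plus vehicle and 100% = wells without tunicamycin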
measurement-context: CHO-K1 CHOP-promoter luciferase, tunicamycin-induced, 15-18 h; at 10 µM; active compounds read high
Screen size: about 220,000 compounds; about 8,200 (3.7%) were called active. For the sample, actives were picked, then their nearest neighbours and some compounds at random.
Documented inhibition across a set of compounds

Record excerpt, results attached:
{"compound": "CC(C)Oc1ccc(CCC(=O)NNC(=S)NCc2ccccc2)cc1", "inhibition": "6.72% (inactive)"}
{"compound": "CCCOc1ccccc1C1CC(=O)Nc2cc3c(cc21)OCO3 (stereo not drawn)", "inhibition": "85.8% (active)"}

Next:
Challenge: Given Cc1cnc(NC(=O)Cn2cnc3c2c(=O)n(C)c(=O)n3C)s1 , state its recorded inhibition.
Response given: -10.1% (inactive)

---

measurement-notes: blockers of ER-stress CHOP reporter expression – cell-based, unfolded protein response, luciferase reporter, primary screen (AID 2732);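 also: 0% = tunicamycin plus vehicle and 100% = wells without tunicamycin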
measurement-context: CHO-K1 CHOP-promoter luciferase, tunicamycin-induced, 15-18 h; at 10 µM; active compounds read high
Screen size: about 220,000 compounds; about 8,200 (3.7%) were called active. The entries come from a sample that favours actives as a whole.
Documented inhibition across a set of compounds

Record excerpt, results attached:
{"compound": "COC(=O)c1cn(C(=O)c2ccc(Cl)cc2)c2ccccc12", "result": "9.55% (inactive)"}
{"compound": "COc1ccc(CNC(=O)CCCn2nc(C)c([N+](=O)[O-])c2C)cc1", "result": "11.7% (inactive)"}

Challenge: Given O=C(/C=C/c1ccc(Cl)cc1)Nc1ccc(S(=O)(=O)Nc2ncccn2)cc1 , state its recorded inhibition.
Response given: 15.1% (inactive)

Challenge: Given CC(C)(C)c1cc(NC(=O)NN2CCOCC2)nn1-c1c(Cl)cc(Cl)cc1Cl , state its recorded inhibition.
Response given: 11.2% (inactive)

Challenge: Given Fc1ccc(Nc2nnns2)cc1 , state its recorded inhibition.
Response given: 3.88% (inactive)

Challenge: Given Cc1nn(Cc2ccc(Cl)cc2)c(Cl)c1/C=N/NC(=O)c1cccnc1 , state its recorded inhibition.
Response given: -12.2% (inactive)

Challenge: Given COCCOC(=O)C1=C(C)N=c2s/c(=C\c3cccs3)c(=O)n2C1c1cccs1 (stereo not drawn) , state its recorded inhibition.
Response given: 4.98% (inactive)

Challenge: Given O=C(NCCc1ccccc1)Oc1ccc(Cl)cc1 , state its recorded inhibition.
Response given: -12.7% (inactive)
